- Tested on: Kasumi-3
- MEASUREMENT_NOTES: IncuCyte Kinetic Caspase-3/7 Apoptosis Assay
- Format: cell-based
- CONDITION_PARAMETERS: Homo sapiens, 48 hr, read-out: Compound 1-induced Apoptosis EC50
pEC50: −log10 of the molar value.

[
  {
    "MOLECULE": "O=C1CCC(N2Cc3cc(CNC(=O)C(F)(F)c4ccc(Cl)cc4)ccc3C2=O)C(=O)N1 (stereo not shown) [Compound 1]",
    "ASSAY_TARGET": "Kasumi-3",
    "pEC50": 8.40
  }
]

----------
- Tested on: KG-1
- MEASUREMENT_NOTES: IncuCyte Kinetic Caspase-3/7 Apoptosis Assay
- Type: cell-based
- CONDITION_PARAMETERS: Homo sapiens, 96 hr, read-out: Compound 1-induced Apoptosis EC50
pEC50: −log10 of the molar value.

[
  {
    "COMPOUND": "O=C1CCC(N2Cc3cc(CNC(=O)C(F)(F)c4ccc(Cl)cc4)ccc3C2=O)C(=O)N1 (stereo not shown)",
    "pEC50": 7.60
  }
]
